target: Diacylglycerol kinase alpha (Homo sapiens)
Sequence (P23743 whole entry): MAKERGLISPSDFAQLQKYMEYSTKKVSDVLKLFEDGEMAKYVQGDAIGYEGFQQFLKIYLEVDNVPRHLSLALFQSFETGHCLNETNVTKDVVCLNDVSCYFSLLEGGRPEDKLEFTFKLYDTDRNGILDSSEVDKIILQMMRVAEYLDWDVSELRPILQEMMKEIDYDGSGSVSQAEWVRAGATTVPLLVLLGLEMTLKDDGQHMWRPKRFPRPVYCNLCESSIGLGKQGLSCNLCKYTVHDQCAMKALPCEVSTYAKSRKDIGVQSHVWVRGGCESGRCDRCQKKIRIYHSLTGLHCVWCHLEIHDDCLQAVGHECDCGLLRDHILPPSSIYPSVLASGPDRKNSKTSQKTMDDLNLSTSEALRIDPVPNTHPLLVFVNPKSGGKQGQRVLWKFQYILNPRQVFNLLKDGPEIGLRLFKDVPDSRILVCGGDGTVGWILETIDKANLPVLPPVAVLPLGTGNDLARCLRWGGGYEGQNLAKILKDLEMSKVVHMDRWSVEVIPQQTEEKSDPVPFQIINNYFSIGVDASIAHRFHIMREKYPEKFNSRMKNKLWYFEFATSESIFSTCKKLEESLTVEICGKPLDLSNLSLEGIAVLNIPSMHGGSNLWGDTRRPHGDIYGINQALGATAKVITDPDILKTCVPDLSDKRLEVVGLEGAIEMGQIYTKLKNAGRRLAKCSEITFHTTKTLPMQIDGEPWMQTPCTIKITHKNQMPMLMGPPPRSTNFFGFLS
property_label: pIC50
One number for each entry, as −log10 of the molar value.

Illustrative cases are given below, each with its answer.
compound: CN(Cc1nnnn1-c1cccc([N+](=O)[O-])c1)C1CCOCC1
tested_target: Diacylglycerol kinase alpha (Homo sapiens)
pIC50: 4.82
--
compound: N#Cc1nc(-n2nnnc2CN(Cc2ccccc2)[C@@H]2CCCC[C@H]2O)ccc1Cl
tested_target: Diacylglycerol kinase alpha (Homo sapiens)
pIC50: 4.22

Turning now to a further record.
Exam item: Tell me its pIC50 given N#Cc1nc(-n2nnnc2CN(CC(O)c2ccccc2)C2CCCCC2)ccc1Cl (stereo not drawn) as the entry.
Marked response: 3.92

---

molecular target: Diacylglycerol kinase alpha [9-727] (Homo sapiens, UniProt P23743)
Sequence (P23743 whole entry): as above
property_label: IC50 (nM)
Answers are plain numbers, in nM.

Exam item: Tell me its IC50 given CN(Cc1nnnn1-c1ccc(Cl)c([N+](=O)[O-])c1)C1CCCCC1 [US20260049068, Example 28] as the entry.
Marked response: 120
